Biological target: protein-protein interaction between Kras and SOS1 (biotin-tagged human Kras loaded with GDP, His-tagged human SOS1) (Homo sapiens (Human), UniProt P01116, G12D)
Assay: Protein-protein interaction inhibition between Kras and SOS1 (KrasG12D-SOS PPI) using AlphaScreen;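 further: kras produced in E. coli, Ni-coupled donor beads and streptavidin acceptor beads, excitation 680 nm with emission detected at 520–620 nm via singlet oxygen transfer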
Type: biochemical
Details: AlphaScreen; biotin-tagged human Kras loaded with GDP, His-tagged human SOS1; read-out: KRAS G12D-SOS PPI IC50
pIC50: −log10 of the molar value. Numbered stars: 1 amine (or outer) side, 2 acyl side, 3 side chain; on linkers, the order of the positions; unused ones are H or OH. Bridge positions count the residues as written; N and C are the ends. Square brackets hold non-standard residues; d marks the D form. Peptide text beside a SMILES is read from it. * marks the point of attachment. hPhe(3-Cl-4-CF3) = N[C@@H](CCc1ccc(C(F)(F)F)c(Cl)c1)C(=O)O; hPhe(3-F,4-CF3) = N[C@@H](CCc1ccc(C(F)(F)F)c(F)c1)C(=O)O; Phe(4-CHF2) = N[C@@H](Cc1ccc(C(F)F)cc1)C(=O)O; NMePhe(4-F) = CN[C@@H](Cc1ccc(F)cc1)C(=O)O; NMedβ3hAla = C[C@H](CC(=O)[*:2])N(C)[*:1]; NMeCha = CN[C@@H](CC1CCCCC1)C(=O)O; NMeD = CN[C@@H](CC(=O)O)C(=O)O; NMeL = CN[C@@H](CC(C)C)C(=O)O; NMeV = CN[C@H](C(=O)O)C(C)C; d(β3hA) = C[C@@H](N)CC(=O)O; NMeS = CN[C@@H](CO)C(=O)O; NMeA = CN[C@@H](C)C(=O)O; NMeAib = CNC(C)(C)C(=O)O; Piperidide = C1CCN(*)CC1; dNMeA = CN[C@H](C)C(=O)O; Ac5c = NC1(C(=O)O)CCCC1; Aze = O=C(O)[C@@H]1CCN1; Cyclopropyl = C1CC1*; Sar = CNCC(=O)O
# if value of pIC50 reaches 8, tag Condition met; if it stays below, tag Condition not met

A selection of reference data follows.
compound	assigned.label
CC[C@H](C)[C@@H]1NC(=O)[C@H](C)N(C)C(=O)C[C@@H](C)NC(=O)[C@H](C(C)C)N(C)C(=O)C2(CCCC2)NC(=O)[C@@H]2CCCN2C(=O)[C@H](CCc2ccc(C(F)(F)F)c(Cl)c2)NC(=O)[C@@H](C)N(C)C(=O)[C@H](Cc2ccc(F)cc2)N(C)C(=O)[C@@H]2CCN2C(=O)[C@H](C)N(C)C1=O [Compound 1702] (cyclo([Ac5c][NMeV][d(β3hA)][NMeA]I[NMeA][Aze][NMePhe(4-F)][dNMeA][hPhe(3-Cl-4-CF3)]P))	Condition not met
CC[C@H](C)[C@@H]1NC(=O)[C@H](COC2CC2)N(C)C(=O)C[C@@H](C(=O)N2CCCCC2)N(C)C(=O)[C@H](C(C)C)N(C)C(=O)C2(CCCC2)NC(=O)[C@@H]2CCCN2C(=O)[C@H](CCc2ccc(C(F)(F)F)c(Cl)c2)NC(=O)CN(C)C(=O)[C@H](CC2CCCCC2)N(C)C(=O)[C@@H]2CCN2C(=O)[C@H](C)N(C)C1=O [Compound 1764] ([NMeS](Cyclopropyl)I[NMeA][Aze][NMeCha][Sar][hPhe(3-Cl-4-CF3)]P[Ac5c][NMeV][NMeD]-Piperidide; lactam N-11)	Condition met

Reported pIC50 at or above 8? CC[C@H](C)[C@@H]1NC(=O)[C@H](CC(C)C)N(C)C(=O)C[C@@H](C)N(C)C(=O)[C@H](CC(C)C)NC(=O)C(C)(C)N(C)C(=O)[C@H](Cc2ccc(C(F)F)cc2)NC(=O)[C@H](CCc2ccc(C(F)(F)F)c(F)c2)NC(=O)CN(C)C(=O)[C@H](CC2CCCCC2)N(C)C(=O)CN(C)C(=O)CN(C)C1=O [Compound 858] (cyclo(I[Sar][Sar][NMeCha][Sar][hPhe(3-F,4-CF3)][Phe(4-CHF2)][NMeAib]L[NMedβ3hAla][NMeL])) Condition not met
